Tested on: MCF-10A
Assay: Cytotoxicity against human MCF10A cells assessed as growth inhibition after 48 hrs by MTT assay
Type: cell-based
IC50 listing for selected molecules.
observable: IC50

>>> result("COC(=O)c1cc(O)cc2oc3cc(CO)ncc3c(=O)c12")
"> 50 µM"
>>> result("COC(=O)c1cc(OC)c(OC(C)=O)c2oc3cc(C)ncc3c(=O)c12")
"> 50 µM"
>>> result("O=C1c2cc(O)cc(O)c2CN1CCO")
"> 50 µM"
>>> result("COc1cc(O)c2c(c1)C(=O)c1cc(C)ncc1C2=O")
"9.31 µM"
>>> result("COC(=O)CCCCN1Cc2c(O)cc(O)cc2C1=O")
"> 50 µM"
>>> result("COc1cccc2c1C(=O)c1c(O)c3c(c(O)c1C2=O)C[C@@](O)(C(=O)CO)C[C@@H]3O[C@H]1C[C@H](N)[C@@H](O)[C@H](C)O1 [EPIRUBICIN]")
"0.13 µM"

---

The entries below are paired with their reported IC50.
Test system: MDA-MB-435
Experiment: Cytotoxicity against human MDA-MB-435 cells assessed as growth inhibition after 48 hrs by MTT assay
Format: functional, cell-based
Details: MDA-MB-435, 48 h
observable: IC50

>>> result("COC(=O)c1cc(O)cc2oc3cc(CO)ncc3c(=O)c12")
"> 50 µM"
>>> result("COC(=O)CCCCN1Cc2c(O)cc(O)cc2C1=O")
"> 50 µM"
>>> result("O=C1c2cc(O)cc(O)c2CN1CCO")
"> 50 µM"

---

Tested on: MCF-10A
Experiment: Cytotoxicity against human MCF10A cells assessed as growth inhibition after 48 hrs by MTT assay
Format: cell-based
observable: IC50

>>> result("COC(=O)c1cc(OC)c(OC)c2oc3cc(C)ncc3c(=O)c12")
"> 50 µM"
>>> result("COC(=O)c1cc(OC)cc2oc3cc(C)ncc3c(=O)c12")
"> 50 µM"
>>> result("O=C(O)CCCCN1Cc2c(O)cc(O)cc2C1=O")
"> 50 µM"

---

System: HCT-116
Experiment: Cytotoxicity against human HCT116 cells assessed as growth inhibition after 48 hrs by MTT assay
Assay type: functional, cell-based
Details: HCT-116, 48 h
pIC50: −log10 of the molar value.
Listed below: pIC50 values for each entry.
observable: pIC50

>>> result("COC(=O)c1cc(O)cc2oc3cc(CO)ncc3c(=O)c12")
"< 4.30"
>>> result("COc1cccc2c1C(=O)c1c(O)c3c(c(O)c1C2=O)C[C@@](O)(C(=O)CO)C[C@@H]3O[C@H]1C[C@H](N)[C@@H](O)[C@H](C)O1 [EPIRUBICIN]")
6.43
>>> result("COC(=O)CCCCN1Cc2c(O)cc(O)cc2C1=O")
"< 4.30"
>>> result("O=C(O)CCCCN1Cc2c(O)cc(O)cc2C1=O")
"< 4.30"
>>> result("COC(=O)c1cc(OC)c(OC(C)=O)c2oc3cc(C)ncc3c(=O)c12")
"< 4.30"
>>> result("O=C1c2cc(O)cc(O)c2CN1CCO")
"< 4.30"
>>> result("COC(=O)c1cc(OC)c(OC)c2oc3cc(C)ncc3c(=O)c12")
"< 4.30"
>>> result("COc1cc(O)c2c(c1)C(=O)c1cc(C)ncc1C2=O")
4.46
>>> result("COC(=O)c1cc(OC)cc2oc3cc(C)ncc3c(=O)c12")
"< 4.30"
